I'd be grateful if you could share measured IC50 for these entries.
- Tested on: CP70
- Protocol Description: MTT proliferation assay, CP70
- Assay type: cell-based
- Setup Conditions: Ovarian, CP70, 120 h of exposure

{"Compound": "Cc1cc([C@H]2c3ccc(O)c(C)c3OC[C@H]2c2ccc(O)cc2)ccc1O (relative stereo) [d-6]", "Observed Value": "150 to 500 nM"}

Could you now look at the following compound, please?
Query IC50 on CP70 for Cc1cc([C@H]2c3ccc(O)c(C)c3OC[C@H]2c2ccc(O)cc2)ccc1O (relative stereo) [l-6]
≥ 10000 nM

----------
- System: CP70
- Protocol Description: MTT proliferation assay, CP70
- Format: cell-based
- Setup Conditions: 120 h, Table 2, Ovarian, CP70, 120 hrs of exposure
- Description: Proliferation Assays. IC50 values were determined for each cell line. Cells were seeded in 96-well plates at an appropriate cell density as determined from growth kinetics analysis and cultured for 5 days in the absence and presence of the test compounds. Cell proliferation was assessed after the addition of 20 μl of 3-4,5 dimethylthiazol-2,5-diphenyl tetrazolium bromide (MTT, 5 mg/ml in PBS, Sigma) for 5 hrs at 37° C. according to manufacturer's instructions. […]
pIC50: −log10 of the molar value.
Property Label: pIC50

Given `Oc1ccc([C@@H]2c3ccc(O)cc3OC[C@@H]2c2ccc(O)cc2)cc1` , state its recorded pIC50.
≤ 5.00

Hey, just so you know, these numbers are from patent US12329739B2.
